# System: wheat (winter wheat, Triticum aestivum)
# measurement-notes: Test C greenhouse herbicide test, pre- and postemergence
# Type: in vivo
# assay-context: Preemergence, 250 g ai/ha; scale 0 to 100, 0 no effect, 100 complete control
value-type: Wheat plant response rating
Field format: numeric only.

Look over these answered cases.
Cn1nc(Br)c(O)c(-c2cccc3ccccc23)c1=O [Compound 20] = 30
CCc1sc2c(C)cc(C)cc2c1-c1c(O)c(C)nn(C)c1=O [Compound 57] = 5

Let us examine a further case.
What measured Wheat plant response rating goes with CC(=O)Oc1c(C)nn(C)c(=O)c1-c1c(C)sc2ccc(Cl)cc12 [Compound 108] ?
10
